- Test system: JURKAT;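 further: ALL cell lines in 384-well plates, five doses spanning 10,000-fold, each plate scaled between vehicle and 100 µmol/L benzalkonium chloride controls, sDSS an adapted area-under-curve metric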
- test: selective drug sensitivity score (sDSS, relative to normal bone marrow) (sDSS (score)); higher = more potent and effective on the cell line relative to normal bone marrow cells
- conditionContext: 72 h
Use 0 as the dividing line for selective drug sensitivity score, with the line itself on the rule met side and lower values as rule not met.

- COc1cc(Nc2ncc(F)c(Nc3ccc4c(n3)N(COP(=O)(O)O)C(=O)C(C)(C)O4)n2)cc(OC)c1OC [Fostamatinib] (top concentration 2500 nM): rule not met
- CC1(COc2ccc3c(c2)ncn3-c2ccc3cccc(N4CCC(N)CC4)c3n2)COC1 [Crenolanib] (top concentration 10000 nM): rule not met
- COC[C@H](NC(=O)c1cnc(C)s1)C(=O)N[C@@H](COC)C(=O)N[C@@H](Cc1ccccc1)C(=O)[C@@]1(C)CO1 [Oprozomib] (top concentration 2500 nM): rule met
- CCN1CCN(Cc2ccc(Nc3ncc(F)c(-c4cc(F)c5nc(C)n(C(C)C)c5c4)n3)nc2)CC1 [Abemaciclib] (top concentration 2500 nM): rule not met
